Tested on: DU-145
Test: Cytotoxicity against human DU145 cells assessed as growth inhibition measured after 48 hrs by SRB assay
Assay type: functional
Details: DU-145, 48 h
test-readout: GI50

[
  {
    "molecule": "COc1ccc2c(c1C=O)CCCC=C2c1cc(OC)c(OC)c(OC)c1",
    "test-readout": "GI50",
    "test-value": "40.2 nM"
  },
  {
    "molecule": "COc1cc(C2=CC(O)CCc3c2ccc(OC)c3OC)cc(OC)c1OC (centres undefined)",
    "test-readout": "GI50",
    "test-value": "439 nM"
  },
  {
    "molecule": "COc1ccc2c(c1C#N)CCC=C2c1cc(OC)c(OC)c(OC)c1",
    "test-readout": "GI50",
    "test-value": "25.2 nM"
  },
  {
    "molecule": "COc1cccc2c1C(=O)c1c(O)c3c(c(O)c1C2=O)C[C@@](O)(C(=O)CO)C[C@@H]3O[C@H]1C[C@H](N)[C@H](O)[C@H](C)O1 [DOXORUBICIN]",
    "test-readout": "GI50",
    "test-value": "134 nM"
  },
  {
    "molecule": "COc1ccc2c(c1C#N)CCCC=C2c1cc(OC)c(OC)c(OC)c1",
    "test-readout": "GI50",
    "test-value": "860 nM"
  },
  {
    "molecule": "COc1ccc2c(c1O)CCCC(O)C2(O)c1cc(OC)c(OC)c(OC)c1 (centres undefined)",
    "test-readout": "GI50",
    "test-value": "4040 nM"
  },
  {
    "molecule": "CC(=O)O[C@H]1C(=O)[C@@]2(C)[C@H]([C@H](OC(=O)c3ccccc3)[C@]3(O)C[C@H](OC(=O)[C@H](O)[C@@H](NC(=O)c4ccccc4)c4ccccc4)C(C)=C1C3(C)C)[C@]1(OC(C)=O)CO[C@@H]1C[C@@H]2O [PACLITAXEL]",
    "test-readout": "GI50",
    "test-value": "1.47 nM"
  },
  {
    "molecule": "COc1ccc2c(c1O)CCCCC2(O)c1cc(OC)c(OC)c(OC)c1 (centres undefined)",
    "test-readout": "GI50",
    "test-value": "33 nM"
  },
  {
    "molecule": "COc1cc(C2(O)C=CCCc3c2ccc(OC)c3OC)cc(OC)c1OC (centres undefined)",
    "test-readout": "GI50",
    "test-value": "26000 nM"
  },
  {
    "molecule": "COc1ccc(/C=C\\c2cc(OC)c(OC)c(OC)c2)cc1OP(=O)(O)O [FOSBRETABULIN DISODIUM]",
    "test-readout": "GI50",
    "test-value": "3.23 nM"
  },
  {
    "molecule": "COc1ccc2c(c1O)CCCC(=O)C2(O)c1cc(OC)c(OC)c(OC)c1 (centres undefined)",
    "test-readout": "GI50",
    "test-value": "141 nM"
  },
  {
    "molecule": "CCOC(=O)c1c(OC)ccc2c1CCCC=C2c1cc(OC)c(OC)c(OC)c1",
    "test-readout": "GI50",
    "test-value": "631 nM"
  },
  {
    "molecule": "COc1ccc2c(c1O)CCC(NC(C)=O)C=C2c1cc(OC)c(OC)c(OC)c1 (centres undefined)",
    "test-readout": "GI50",
    "test-value": "1200 nM"
  },
  {
    "molecule": "COc1ccc(/C=C\\c2cc(OC)c(OC)c(OC)c2)cc1O [COMBRETASTATIN A4]",
    "test-readout": "GI50",
    "test-value": "3.27 nM"
  },
  {
    "molecule": "COc1ccc2c(c1O)CCCC(Br)=C2c1cc(OC)c(OC)c(OC)c1",
    "test-readout": "GI50",
    "test-value": "36.2 nM"
  },
  {
    "molecule": "COCCOCCOc1c(OC)ccc2c1CCCC=C2c1cc(OC)c(OC)c(OC)c1",
    "test-readout": "GI50",
    "test-value": "5660 nM"
  },
  {
    "molecule": "COc1ccc2c(c1C)CCCC(Br)=C2c1cc(OC)c(OC)c(OC)c1",
    "test-readout": "GI50",
    "test-value": "423 nM"
  },
  {
    "molecule": "COc1cc(C2=CCCCc3c2ccc(OC)c3OCCO)cc(OC)c1OC",
    "test-readout": "GI50",
    "test-value": "3760 nM"
  },
  {
    "molecule": "COc1cc(C2CCc3c(ccc(OC)c3OC)C(=O)C2)cc(OC)c1OC (centres undefined)",
    "test-readout": "GI50",
    "test-value": "4450 nM"
  }
]
